Assign MIC to each entry below.
system: M. tuberculosis strain 1356; assay: microbe, parasite or virus in culture; format: cell-based; conditions: Mycobacterium tuberculosis, 1356
Give bare numbers, in mg/L.

Check out these entries, answers already filled in.
INSERT INTO results (compound, test_readout, reported_measurement) VALUES
  ('CC[C@@H](CO)NCCN[C@@H](CC)CO [Ethambutol]', 'MIC', 64),
  ('CO[C@H]1/C=C/O[C@@]2(C)Oc3c(C)c(O)c4c(O)c(c(/C=N/N5CCN(C)CC5)c(O)c4c3C2=O)NC(=O)/C(C)=C\C=C\[C@H](C)[C@H](O)[C@@H](C)[C@@H](O)[C@@H](C)[C@H](OC(C)=O)[C@@H]1C [Rifampin]', 'MIC', 0.031),
  ('[H]/N=C(/N)N[C@H]1[C@H](O)[C@@H](O)[C@H](O[C@@H]2O[C@@H](C)[C@](O)(C=O)[C@H]2O[C@@H]2O[C@@H](CO)[C@H](O)[C@@H](O)[C@@H]2NC)[C@@H](N/C(N)=N\[H])[C@@H]1O [Streptomycin]', 'MIC', 0.25);

Just so you know, measured MIC for NNC(=O)c1ccncc1 [Isoniazid] came out at 0.25
